target: CDK1 (Homo sapiens)
Sequence (P06493 whole entry, species assumed): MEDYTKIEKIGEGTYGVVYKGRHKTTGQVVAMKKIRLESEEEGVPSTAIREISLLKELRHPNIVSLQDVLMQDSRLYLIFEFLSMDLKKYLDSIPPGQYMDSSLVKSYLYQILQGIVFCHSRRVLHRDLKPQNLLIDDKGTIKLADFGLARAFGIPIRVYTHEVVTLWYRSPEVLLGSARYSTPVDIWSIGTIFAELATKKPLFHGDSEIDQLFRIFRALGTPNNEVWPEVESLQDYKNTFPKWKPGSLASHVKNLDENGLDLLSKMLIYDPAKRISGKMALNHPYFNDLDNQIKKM
Sequence (P14635 whole entry partner, species assumed): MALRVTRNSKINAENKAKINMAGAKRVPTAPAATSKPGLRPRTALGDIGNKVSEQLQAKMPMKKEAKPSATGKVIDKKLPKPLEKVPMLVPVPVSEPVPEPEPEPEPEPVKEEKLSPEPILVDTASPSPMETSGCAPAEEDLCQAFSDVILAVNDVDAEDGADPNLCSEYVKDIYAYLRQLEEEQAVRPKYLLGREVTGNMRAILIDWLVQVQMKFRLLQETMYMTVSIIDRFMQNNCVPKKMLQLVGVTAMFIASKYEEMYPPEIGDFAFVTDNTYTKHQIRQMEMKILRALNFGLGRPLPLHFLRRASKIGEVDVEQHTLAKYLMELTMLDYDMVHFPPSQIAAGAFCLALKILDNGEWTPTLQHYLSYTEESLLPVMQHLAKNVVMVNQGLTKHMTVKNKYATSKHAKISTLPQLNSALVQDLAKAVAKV
pIC50: −log10 of the molar value.
Test Readout: pIC50

Reported pIC50 (CDK1 (Homo sapiens)) for entry O=C1Nc2ccc3ncsc3c2C1=CNc1ccc(S(=O)(=O)Nc2ccccn2)cc1 is 7.00 to 7.29
